assayed_system: human LAP-TGFβ1 expressed on P3U1 cells (human, UniProt P01137 30-390)
Sequence (P01137 30-390): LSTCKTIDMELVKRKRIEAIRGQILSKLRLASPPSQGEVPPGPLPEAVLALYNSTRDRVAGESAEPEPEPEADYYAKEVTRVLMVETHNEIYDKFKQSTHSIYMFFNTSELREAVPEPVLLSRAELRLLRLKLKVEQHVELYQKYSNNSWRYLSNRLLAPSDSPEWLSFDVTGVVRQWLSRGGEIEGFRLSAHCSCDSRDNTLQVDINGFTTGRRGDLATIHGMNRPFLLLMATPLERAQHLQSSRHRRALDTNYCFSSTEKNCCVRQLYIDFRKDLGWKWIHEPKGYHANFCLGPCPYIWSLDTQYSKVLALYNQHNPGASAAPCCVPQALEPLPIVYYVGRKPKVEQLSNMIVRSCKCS
protocol_details: cell-based or functional assay
Average EC50 reference
Form entry: value (µg/mL) — number only.

# binder, observed_result
rows = [
    ("16BLM (antibody, human IgG1, kappa, L234A L235A, V domains shown, IgG1 L234A L235A D265S/kappa; also called 79BLH; 52BMD) VH: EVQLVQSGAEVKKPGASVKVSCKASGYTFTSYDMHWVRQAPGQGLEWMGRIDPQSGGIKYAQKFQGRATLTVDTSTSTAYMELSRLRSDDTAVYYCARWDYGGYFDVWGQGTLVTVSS VL: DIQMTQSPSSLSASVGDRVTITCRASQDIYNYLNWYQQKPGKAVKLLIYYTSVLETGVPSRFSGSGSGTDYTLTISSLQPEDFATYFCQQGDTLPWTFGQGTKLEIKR", 0.104),
]

For the next question, use this binder.
Suppose we examine the binder 15BLM (antibody, human IgG1, kappa, L234A L235A, V domains shown, IgG1 L234A L235A D265S/kappa; also called 78BLH; 51BMD) VH: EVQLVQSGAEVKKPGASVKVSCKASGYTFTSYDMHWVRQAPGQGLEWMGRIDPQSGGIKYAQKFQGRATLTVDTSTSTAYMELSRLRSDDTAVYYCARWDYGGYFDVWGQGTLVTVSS VL: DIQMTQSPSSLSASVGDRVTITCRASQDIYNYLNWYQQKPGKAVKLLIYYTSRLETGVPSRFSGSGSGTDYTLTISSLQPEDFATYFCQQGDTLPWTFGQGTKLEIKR ; what Average EC50 value has been reported?
0.231
